- ASSAY_SYSTEM: Gamma-butyrobetaine dioxygenase (Homo sapiens, UniProt O75936)
- Sequence (O75936 whole entry): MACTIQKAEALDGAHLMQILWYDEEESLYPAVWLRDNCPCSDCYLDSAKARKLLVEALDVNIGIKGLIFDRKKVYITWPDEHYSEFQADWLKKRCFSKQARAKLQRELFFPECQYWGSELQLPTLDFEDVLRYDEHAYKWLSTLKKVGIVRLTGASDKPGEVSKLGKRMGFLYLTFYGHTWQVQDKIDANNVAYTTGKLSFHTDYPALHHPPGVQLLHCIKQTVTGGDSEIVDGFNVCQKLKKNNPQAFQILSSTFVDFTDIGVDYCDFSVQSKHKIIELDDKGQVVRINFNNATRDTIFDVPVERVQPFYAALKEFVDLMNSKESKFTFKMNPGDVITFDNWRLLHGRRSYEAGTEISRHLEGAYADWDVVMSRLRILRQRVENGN
- EXPERIMENT: Inhibition of human recombinant BBOX expressed in Saccharomyces cerevisiae AH22 assessed as formation of carnitine from gamma-butyrobetaine preincubated for 15 mins measured after 30 mins by UPLC-MS/MS analysis
MEASURED_ENDPOINT: IC50 (µM)

Consider the worked cases shown below.
CN(CCC(=O)[O-])[N+](C)(C)C :: 0.09
CCC[N+](C)(C)N(C)CCC(=O)[O-] :: 3.1
C=CC[N+](C)(C)CCCC(=O)[O-] :: 2.7

I: C[N+]1(CCCC(=O)O)CCCC1
II: C#CC[N+](C)(C)CCCC(=O)[O-]
III: CCN(CCC(=O)[O-])[N+](C)(C)C
Ask | Ordering criterion: IC50; begin with the maximum. Lab note: final answer is the ordered label list.
Reply | III, II, I
(III: 2.8 µM, II: 1.4 µM, I: 0.49 µM)

The values you see were collected from ChEMBL document CHEMBL3232920.
